# Tested on: NCI-H1944
# assay-remarks: normalised cell viability (NPI; 0 = phenylarsine oxide control, 1 = DMSO control) (fraction of DMSO control); higher = more viable cells (less compound toxicity)
# condition-context: glucocorticoid arm: hydrocortisone 2.75 uM co-treatment; compound 1 µM; 6 days
Structures can show the parent of a compound that is named as a salt. In all, about 1,900 compounds were measured (“normalised cell viability (NPI; 0 = phenylarsine oxide control, 1 = DMSO control)”: median about 1, lowest 2% from about 0.039 on). The entries come from a sample that favours the lowest values as a whole.
// boundary case: normalised cell viability equal to 1 maps to 0.0; strictly smaller maps to 1.0

1) Cc1ncc(-c2ccnc(Nc3ccc(S(C)(=O)=O)cc3)n2)n1C(C)C    1.0
2) C=CC(=O)Nc1ccc2ncnc(Nc3ccc(OCc4cccc(F)c4)c(Cl)c3)c2c1    1.0
3) CS(=O)(=O)N1CCc2c(-c3cnc(N)nc3)nc(N3CCOCC3)nc21    1.0
4) Nc1ncn([C@H]2C[C@H](O)[C@@H](CO)O2)c(=O)n1 [5-Aza-2'-deoxycytidine]    0.0
5) O=C1c2c(O)ccc(O)c2C(=O)c2c(NCCNCCO)ccc(NCCNCCO)c21 [Mitoxantrone dihydrochloride]    1.0
6) FC(F)c1nc2ccccc2n1-c1nc(N2CCOCC2)nc(N2CCOCC2)n1    1.0

Q: Given the entry Nc1ncn([C@H]2C[C@H](O)[C@@H](CO)O2)c(=O)n1 [5-Aza-2'-deoxycytidine; Decitabine] , would its reported normalised cell viability be below 1?
Ans: 0.0

Q: Here's an entry: `NC(=O)Nc1cc(-c2cccc(F)c2)sc1C(=O)N[C@H]1CCCNC1` . Is its normalised cell viability below 1?
Ans: 1.0

###

Below, each entry is listed alongside its reported normalised cell viability.
# Test system: NCI-H1944
# assay-remarks: normalised cell viability (NPI; 0 = phenylarsine oxide control, 1 = DMSO control) (fraction of DMSO control); higher = more viable cells (less compound toxicity)
# condition-context: glucocorticoid arm: hydrocortisone 2.75 uM co-treatment; compound 1 µM; 6 days
Structures can show the parent of a compound that is named as a salt. In all, about 1,900 compounds were measured (“normalised cell viability (NPI; 0 = phenylarsine oxide control, 1 = DMSO control)”: median about 1, lowest 2% from about 0.039 on). Many of the other results were omitted from the sample, so the lowest values are more common in it than they were.
The reply should be a number, written without any unit.

1) C[n+]1cc2c3c(ccc2c2ccc4cc5c(cc4c21)OCO5)OCO3 [Sanguinarine chloride]    1.04

Q: normalised cell viability lookup needed for COC(=O)C1=C(C)NC(C)=C([N+](=O)[O-])C1c1ccccc1C(F)(F)F (racemic) , thanks.
Ans: 0.99

Q: Please give the measured normalised cell viability for this compound: NCC=CC(=O)O (stereo in doubt) [cis-4-Aminocrotonic acid]
Ans: 0.992

Q: Using the record for NC(=O)c1cc[n+](CC2=C(C(=O)O)N3C(=O)[C@@H](NC(=O)C(c4ccccc4)S(=O)(=O)[O-])[C@H]3SC2)cc1 (stereo not given in full) [Cefsulodin sodium salt hydrate] , report its normalised cell viability.
Ans: 1.01

Q: Please report the recorded normalised cell viability for CC1CN(S(=O)(=O)c2cccc3cnccc23)CCN1 (stereo not given) .
Ans: 0.978

###

Entries and their normalised cell viability values follow.
# Test system: NCI-H1944
# assay-remarks: normalised cell viability (NPI; 0 = phenylarsine oxide control, 1 = DMSO control) (fraction of DMSO control); higher = more viable cells (less compound toxicity)
# condition-context: glucocorticoid arm: vehicle; compound 1 µM; 6 days
Structures can show the parent of a compound that is named as a salt. Over roughly 1,900 compounds, “normalised cell viability (NPI; 0 = phenylarsine oxide control, 1 = DMSO control)” has its median near 1; the lowest 2% begin near 0.039. Shown is part of a subset that was picked to be rich in the lowest values.

1) O=C1c2c(O)cc(O)cc2O[C@H](c2ccc(O)c(O)c2)[C@H]1O (racemic) [(±)-Taxifolin]    1.02
2) Nc1ccc(-c2ccc3ncc4ccc(=O)n(-c5cccc(C(F)(F)F)c5)c4c3c2)cn1    0.0254
3) O=C(c1ccc(F)cc1)N1CCCC(c2nc(-c3ccc(F)cc3)no2)C1 (centres undefined)    1.01
4) COc1cc(OC)c(/C=C/S(=O)(=O)Cc2ccc(OC)c(NCC(=O)O)c2)c(OC)c1    0.0447
5) COc1ccc(-c2nc(N3CCOCC3)c3sc(CN(C)c4ncc(C(=O)NO)cn4)cc3n2)cn1    0.00371

Q: Quick check: normalised cell viability of O=C1NC(=O)C(=Cc2ccc(-c3ccc(F)cc3)o2)S1 (stereo in doubt) ?
Ans: 0.991

Q: Consider the compound shown here: `Cc1c(CN2CCN(C(=O)[C@H](C)O)CC2)sc2c(N3CCOCC3)nc(-c3cnc(N)nc3)nc12` What is its recorded normalised cell viability?
Ans: 0.757

Q: Consider the compound shown here: `CS(=O)(=O)N1CCN(Cc2cc3nc(-c4cccc5[nH]ncc45)nc(N4CCOCC4)c3s2)CC1` What is its recorded normalised cell viability?
Ans: 0.998

Q: Which normalised cell viability value belongs to N=C(N)NCCCCNC(=N)N [Arcaine sulfate] ?
Ans: 0.987

###

# Test system: NCI-H1944
# assay-remarks: normalised cell viability (NPI; 0 = phenylarsine oxide control, 1 = DMSO control) (fraction of DMSO control); higher = more viable cells (less compound toxicity)
# condition-context: glucocorticoid arm: hydrocortisone 2.75 uM co-treatment; compound 1 µM; 6 days
Structures can show the parent of a compound that is named as a salt. Over roughly 1,900 compounds, “normalised cell viability (NPI; 0 = phenylarsine oxide control, 1 = DMSO control)” has its median near 1; the lowest 2% begin near 0.039. This is one part of a sample in which the lowest values are shown more often than they occur.
normalised cell viability values by entry
Form rule: numeric answer, no unit written next to it.

Below are worked cases with known answers.
1) NCc1c[nH]c(=S)n1[C@H]1CCc2c(F)cc(F)cc2C1 [Nepicastat (SYN-117) HCl]    0.994
2) CCN1CCN(Cc2ccc(Nc3ncc(F)c(-c4cc(F)c5nc(C)n(C(C)C)c5c4)n3)nc2)CC1    0.493
3) CNc1nc(Nc2cnn(C3CCN(C4COC4)CC3F)c2Cl)ncc1C(F)(F)F (configuration not stated)    1.02
4) COC(=O)C(C)(N)Cc1ccc(O)cc1 (racemic) [alpha-Methyl-DL-tyrosine methyl ester hydrochloride]    1
5) CC(C)(C)c1ccc(S(=O)(=O)/C=C/C#N)cc1    0.991

Q: Query (molecule): OC[C@H]1NC[C@H](O)[C@@H](O)[C@@H]1O [1-Deoxynojirimycin hydrochloride] ; field requested: normalised cell viability
Ans: 1.01

Q: Dear colleague, I am looking for the recorded normalised cell viability of the following molecule: N=c1ccn2c(n1)O[C@H]1[C@H](O)[C@@H](CO)O[C@H]12 [Ancitabine hydrochloride]
Ans: 0.16

Q: Form field: reported normalised cell viability of CCN(CC)CCCC(C)Nc1nc(C)cc(Nc2ccc3nc(C)cc(N)c3c2)n1 (configuration not stated)
Ans: 0.845

Q: # lookup: normalised cell viability of `NC1(Cc2ccc(Cl)cc2)CCN(c2ncnc3[nH]ccc23)CC1`
Ans: 0.901

Q: Endpoint output: normalised cell viability of CCCN(CCc1ccccc1)C1CCc2c(O)cccc2C1 (racemic) [(±)-PPHT hydrochloride] . Value?
Ans: 0.986

###

# Tested on: NCI-H1944;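 note: CTB read-out in 384-well plates, triplicate wells, NPI normalised per plate against 1 µM phenylarsine oxide (0) and 0.1% DMSO (1) controls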
# assay-remarks: normalised cell viability (NPI; 0 = phenylarsine oxide control, 1 = DMSO control) (fraction of DMSO control); NCI-H1944 is a non-small cell lung cancer line; higher = more viable cells (less compound toxicity)
# condition-context: glucocorticoid arm: vehicle; compound 1 µM; 6 days
Where a name gives a salt, the structure may show the parent alone. In all, about 1,900 compounds were measured (“normalised cell viability (NPI; 0 = phenylarsine oxide control, 1 = DMSO control)”: median about 1, lowest 2% from about 0.039 on). What follows is part of a selection rich in the lowest values, with near analogues and random picks from the rest.
Entries annotated with measured normalised cell viability
Note: the reply should be a number with no unit written.

1. OCc1ccc(-c2ccc(-c3ccc(CO)s3)o2)s1    0.621
2. NC[C@@H](O)c1ccc(O)c(O)c1 [L(-)-Norepinephrine bitartrate]    0.98
3. NCCC1CCCC(CCN)N1 (centres undefined) [MDL 26,630 trihydrochloride]    0.992
4. [Cl-].[Li+] [Lithium Chloride]    1.01
5. CN=c1nc(-c2ccccc2)n(-c2ccccc2)s1    1.01
6. C[C@H](Cc1ccc(O)c(O)c1)[C@@H](C)Cc1ccc(O)c(O)c1    1.01

Q: So what's the measured normalised cell viability for this one? CCCCOc1cc(CC2CNC(=O)N2)ccc1OC (centres undefined)
Ans: 1.01

Q: Using the record for CCCCCCCCCCCCCCCCCCOCC(COP(=O)([O-])OCC[N+](C)(C)C)OC (centres undefined) , report its normalised cell viability.
Ans: 0.985

Q: Suppose we examine the compound `NC[C@@H]1O[C@H](C23CC4CC(CC(C4)C2)C3)Cc2c1ccc(O)c2O` ; what normalised cell viability value has been reported?
Ans: 1.01

Q: // query normalised cell viability value for entry `O=C(CCCCCCNC(=O)c1cnc(N(c2ccccc2)c2ccccc2)nc1)NO`
Ans: 1.01
